Assay: Solubility of polymorphs at pH 7.4 in phosphate buffer at 25° C.
Format: physicochemical
Conditions: pH 7.4 phosphate buffer, 1 hr
Description: The solubility of the different polymorphs was determined at pH 7.4 in phosphate buffer at 25° C. Samples were analyzed as a function of time for each form to determine the equilibrium values. The residual solids from each sample were analyzed to verify that the form was unchanged during the experiment. The concentration (mg/mL) versus time data is listed below for each form: […]

compound: COc1ccc(C(=O)NC2(C(=O)O)Cc3ccccc3C2)cc1OCCc1cccc(C)c1 [Form 3]
Concentration (solubility) [µg/mL]: 83
--
compound: COc1ccc(C(=O)NC2(C(=O)O)Cc3ccccc3C2)cc1OCCc1cccc(C)c1 [Form 4]
Concentration (solubility) [µg/mL]: 79
--
compound: COc1ccc(C(=O)NC2(C(=O)O)Cc3ccccc3C2)cc1OCCc1cccc(C)c1 [Form 2]
Concentration (solubility) [µg/mL]: 34
--
compound: COc1ccc(C(=O)NC2(C(=O)O)Cc3ccccc3C2)cc1OCCc1cccc(C)c1 [Form 1]
Concentration (solubility) [µg/mL]: 42

====

Assay: Solubility of polymorphs at pH 7.4 in phosphate buffer at 25° C.
Format: physicochemical
Details: pH 7.4 phosphate buffer, 2 hr

compound: COc1ccc(C(=O)NC2(C(=O)O)Cc3ccccc3C2)cc1OCCc1cccc(C)c1 [Form 4]
measure unit: mg/mL
Concentration (solubility): 0.089
--
compound: COc1ccc(C(=O)NC2(C(=O)O)Cc3ccccc3C2)cc1OCCc1cccc(C)c1 [Form 2]
measure unit: mg/mL
Concentration (solubility): 0.039
--
compound: COc1ccc(C(=O)NC2(C(=O)O)Cc3ccccc3C2)cc1OCCc1cccc(C)c1 [Form 1]
measure unit: mg/mL
Concentration (solubility): 0.041
--
compound: COc1ccc(C(=O)NC2(C(=O)O)Cc3ccccc3C2)cc1OCCc1cccc(C)c1 [Form 3]
measure unit: mg/mL
Concentration (solubility): 0.093

====

Experiment: Solubility of Compound I in solvents at room temperature (about 25° C.)
Format: physicochemical
Conditions: organic solvent or mixture, thermodynamic from solid, methanol, read-out: Solubility
value type: solubility

compound string: COc1ccc(C(=O)NC2(C(=O)O)Cc3ccccc3C2)cc1OCCc1cccc(C)c1
recorded value: 2000 to 3000 µg/mL

====

Assay: Solubility of polymorphs at pH 7.4 in phosphate buffer at 25° C.
Assay type: physicochemical
Conditions: pH 7.4 phosphate buffer, 24 hr

compound: COc1ccc(C(=O)NC2(C(=O)O)Cc3ccccc3C2)cc1OCCc1cccc(C)c1 [Form 3]
Concentration (equilibrium solubility), mg/mL: 0.097
--
compound: COc1ccc(C(=O)NC2(C(=O)O)Cc3ccccc3C2)cc1OCCc1cccc(C)c1 [Form 1]
Concentration (equilibrium solubility), mg/mL: 0.042
--
compound: COc1ccc(C(=O)NC2(C(=O)O)Cc3ccccc3C2)cc1OCCc1cccc(C)c1 [Form 4]
Concentration (equilibrium solubility), mg/mL: 0.102

====

Assay: Slurry stability study at room temperature (25° C.), 4 weeks, resulting form by FTIR
Assay type: physicochemical
Settings: slurried in methanol, 25° C., 4 weeks, FTIR

compound: COc1ccc(C(=O)NC2(C(=O)O)Cc3ccccc3C2)cc1OCCc1cccc(C)c1 [Forms 1, 2, 3]
Final form after slurry: Form 1
//
compound: COc1ccc(C(=O)NC2(C(=O)O)Cc3ccccc3C2)cc1OCCc1cccc(C)c1 [Form 1]
Final form after slurry: Form 1
